Kindly supply the reported IC50 values for the records listed here.
- Test system: NSCLC strain A-549
- PROCEDURE SUMMARY: MTT assay for cell survival, NSCLC A-549 in vitro
- Assay type: cell-based, human
- STUDY CONDITIONS: ED50 for killing of NSCLC strain A-549 in vitro, 4 days
One number for each entry, in µM.

1) COc1ccc2c(c1)c(CC(=O)NC(Cc1ccc(OCc3c(Cl)cccc3Cl)cc1)C(=O)NC1CC(C)(C)NC(C)(C)C1)c(C)n2C(=O)c1ccc(Cl)cc1 (stereo not drawn)
1.8
2) O=C(C=Cc1c(F)c(F)c(F)c(F)c1F)NC(Cc1ccc(I)cc1)C(=O)N1CCN(CC2CCCCC2)CC1 (stereo not drawn)
21
3) O=C(C=Cc1c(F)c(F)c(F)c(F)c1F)NC(Cc1ccc(I)cc1)C(=O)N1CC2CC1CN2Cc1ccccc1 (stereo not drawn)
20

Please report IC50 for every entry that follows.
1. O=C(C=Cc1c(F)c(F)c(F)c(F)c1F)NC(Cc1ccc(-c2ccccc2)cc1)C(=O)N1CC2CC1CN2c1ccc(F)cc1 (stereo not drawn)
2. O=C(C=Cc1c(F)c(F)c(F)c(F)c1F)NC(Cc1ccc(-c2ccccc2)cc1)C(=O)NC1CN2CCC1CC2 [Analog M-1288, F5c-Bip-(R)-(+)-Aqu]
3. O=C(C=Cc1c(F)c(F)c(F)c(F)c1F)NC(Cc1ccc(-c2ccccc2)cc1)C(=O)NC1CN2CCC1CC2 [Analog M-1292, F5c-Bip-(S)-(−)-Aqu]

22
7.3
9.8
